# assay.text: Inhibition of […] phosphatidylinositol 3-kinase (unknown origin) by PIP3 production detection based fluorescence assay
# Design: species or system Homo sapiens
readout.label: EC50

Query: Output EC50 of CC(C)n1nc(-c2ccc3oc(N)nc3c2)c2c(N)ncnc21 [SAPANISERTIB]
Result: > 1000 nM

###

# target.or.system: Phosphatidylinositol 4,5-bisphosphate 3-kinase catalytic subunit gamma isoform (Homo sapiens)
# Sequence (P48736 whole entry, canonical isoform): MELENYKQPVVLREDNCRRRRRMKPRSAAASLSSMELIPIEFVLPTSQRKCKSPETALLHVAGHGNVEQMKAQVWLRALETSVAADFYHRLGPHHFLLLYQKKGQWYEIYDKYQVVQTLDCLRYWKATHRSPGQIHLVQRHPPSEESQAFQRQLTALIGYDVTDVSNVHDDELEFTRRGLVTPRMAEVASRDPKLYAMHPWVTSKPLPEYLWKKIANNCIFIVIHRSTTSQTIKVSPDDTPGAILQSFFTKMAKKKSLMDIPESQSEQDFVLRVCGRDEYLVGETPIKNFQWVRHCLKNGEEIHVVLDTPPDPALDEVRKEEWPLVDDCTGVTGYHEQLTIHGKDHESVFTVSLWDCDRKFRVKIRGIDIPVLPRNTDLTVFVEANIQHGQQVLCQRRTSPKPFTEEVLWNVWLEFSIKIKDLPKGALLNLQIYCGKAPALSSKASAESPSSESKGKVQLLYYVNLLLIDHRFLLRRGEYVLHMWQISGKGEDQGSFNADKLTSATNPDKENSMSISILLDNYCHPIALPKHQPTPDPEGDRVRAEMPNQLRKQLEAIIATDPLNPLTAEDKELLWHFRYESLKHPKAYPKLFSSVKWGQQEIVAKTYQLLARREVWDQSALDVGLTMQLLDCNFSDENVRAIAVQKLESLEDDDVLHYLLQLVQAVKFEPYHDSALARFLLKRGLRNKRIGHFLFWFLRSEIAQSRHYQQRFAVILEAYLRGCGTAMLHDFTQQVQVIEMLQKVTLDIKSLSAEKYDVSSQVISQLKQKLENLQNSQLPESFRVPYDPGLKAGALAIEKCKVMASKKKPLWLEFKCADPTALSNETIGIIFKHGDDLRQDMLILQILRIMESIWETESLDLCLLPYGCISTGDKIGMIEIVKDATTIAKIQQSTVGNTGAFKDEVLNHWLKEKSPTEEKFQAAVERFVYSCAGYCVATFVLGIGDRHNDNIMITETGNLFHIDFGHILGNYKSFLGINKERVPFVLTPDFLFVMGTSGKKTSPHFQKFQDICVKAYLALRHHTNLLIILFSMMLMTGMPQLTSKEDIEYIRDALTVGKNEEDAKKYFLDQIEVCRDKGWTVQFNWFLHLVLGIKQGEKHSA
# assay.text: Inhibition of PI3K gamma (unknown origin) by membrane capture assay
readout.label: EC50 (µM)
Provide the reading as a plain figure in µM.

Query: Output EC50 of Nc1ncc(-c2ccnc(Nc3ccncc3)n2)c(CC2CC2)n1
Result: 3.04
